- Target: T1, apical domain of human CD71 (human, UniProt P02786 189-383, limits assumed)
- T1 construct: domain: apical domain; Screen 4 panned on human apical domains, the ELISA text says only 'apical domain'
- T1 sequence (P02786 189-383 limits assumed): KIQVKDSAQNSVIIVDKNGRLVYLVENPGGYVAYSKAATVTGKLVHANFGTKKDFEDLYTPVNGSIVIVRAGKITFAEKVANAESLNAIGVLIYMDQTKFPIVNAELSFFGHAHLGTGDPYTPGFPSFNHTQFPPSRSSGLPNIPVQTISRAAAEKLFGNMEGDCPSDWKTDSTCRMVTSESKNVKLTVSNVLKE
- Assay name: primary ELISA, RLU over HSA
Class boundaries, taken from values of Apical domain:HSA, are as follows: lower range = under 90, middle range = from 90 up to 300, upper range = 300 and over

binder="CD71-binding FN3 domain of SEQ ID NO: 541 (designed binder) MLPAPKNLVVSRVTEDSARLSWTAPDAAFDSFFIGYLEPQPPGEAIDLWVPGSERSYDLTGLKPGTEYNVTIQGVKGGFPSMPLDAYFTT" category="middle range"
binder="CD71-binding FN3 domain of SEQ ID NO: 506 (designed binder) MLPAPKNLVVSRVTEDSARLSWTAPDAAFDSFEIGYWENAYKGEAIVLTVPGSERSYDLTGLKPGTEYVVFIGGVKGGVWSVPLSAISTT" category="middle range"

[ask] Input CD71-binding FN3 domain of SEQ ID NO: 537 (designed binder) MLPAPKNLVVSRVTEDSARLSWTAPDAAFDSFEIGYFENLYLGEAIVLTVPGSERSYDLTGLKPGTEYWVQIGGVKGGNWSAPLSAIFTT ; output its category
[reply] lower range

[ask] Lab note: sort CD71-binding FN3 domain of SEQ ID NO: 469 (designed binder) MLPAPKNLVVSRVTEDSARLSWTAPDAAFDSFFIGYLEPQPPGEAIHLYVPGSERSYDLTGLKPGTEYNVTIQGVKGGFPSLPLVATFTT into the matching Apical domain:HSA band.
[reply] lower range

Numbers sourced from patent US20260151494A1.
